The measurements presented in this section are drawn from ChEMBL document CHEMBL6078698.

Test: Unbound fraction in CD-1 mouse plasma at 1 mg/kg, po or 0.5 mg/kg, iv
Format: ADME, organism-based
Details: in vivo
Observable: Fu (%)

Molecule | Observed Result
CNC(=O)c1ccc(N2CCN(Cc3ccc4nc(C)c(=O)[nH]c4c3F)CC2)c(F)n1 [AZD-9574] | 20

---

Assay: Solubility of compound at pH 7.4
Type: physicochemical
Settings: buffer
Reported solubility values for the following compounds.

Mol Smiles | Readout Unit | Limit Operator | solubility
CCc1nc2ccc(CN3CCN(c4ccc(F)nc4)CC3)cc2[nH]c1=O | µM | = | 9
CCc1nc2ccc(CN3CCN(c4cnc(F)cc4C)CC3)cc2[nH]c1=O | µM | = | 9
CCc1nc2ccc(CN3CCN(c4ccc(C(=O)NC)nc4F)CC3)c(F)c2[nH]c1=O | µM | < | 11
